- cond: human, 6 h, 1 ng/mL
Decision: % from freshly processed samples (n=2) >= -10% yields t, all other cases yield f.

O=c1nc(N2CCN(CC3CCCCC3O)CC2)sc2c([N+](=O)[O-])cc(C(F)(F)F)cc12 (stereo not drawn) | t
O=c1nc(N2CCN(CC3CCCC(O)C3)CC2)sc2c([N+](=O)[O-])cc(C(F)(F)F)cc12 (stereo not drawn) | f
O=c1nc(N2CCN(CC3CCCCC3)CC2)sc2c([N+](=O)[O-])cc(C(F)(F)F)cc12 | t
O=C1CCCC(CN2CCN(c3nc(=O)c4cc(C(F)(F)F)cc([N+](=O)[O-])c4s3)CC2)C1 (stereo not drawn) | t
O=C(C1CCCCC1)N1CCN(c2nc(=O)c3cc(C(F)(F)F)cc([N+](=O)[O-])c3s2)CC1 | f

Attention now shifts to the item below.
*Q* Decide: is the reported value of % from freshly processed samples (n=2) for O=c1nc(N2CCN(CC3(O)CCCCC3)CC2)sc2c([N+](=O)[O-])cc(C(F)(F)F)cc12 equal to or greater than -10%?
*A* t
